Molecular target: T1, apical domain of human CD71 (human, UniProt P02786 189-383, limits assumed)
T1 construct: domain: apical domain; Screen 4 panned on human apical domains, the ELISA text says only 'apical domain'
T1 sequence (P02786 189-383 limits assumed): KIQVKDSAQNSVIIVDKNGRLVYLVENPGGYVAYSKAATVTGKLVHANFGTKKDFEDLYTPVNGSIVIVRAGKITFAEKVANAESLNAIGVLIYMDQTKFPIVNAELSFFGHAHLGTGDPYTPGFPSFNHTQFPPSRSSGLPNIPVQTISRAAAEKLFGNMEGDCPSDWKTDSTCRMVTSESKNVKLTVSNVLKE
Test: primary ELISA; further: test concentration or dose not given here
assay.metric: RLU (RLU)

INSERT INTO assay_data (binder, recorded_number) VALUES
  ('CD71-binding FN3 domain of SEQ ID NO: 516 (designed binder) MLPAPKNLVVSRVTEDSARLSWTAPDAAFDSFFIGYLEPQPPGEAISLWVPGSERSYDLTGLKPGTEYNVTIQGVKGGFPSSPLVAYFTT', '4.67e+06'),
  ('CD71-binding FN3 domain of SEQ ID NO: 517 (designed binder) MLPAPKNLVVSRVTEDSARLSWTAPDAAFDSFFIGYLEPQPPGEAIALVVPGSERSYDLTGLKPGTEYNVTIQGVKGGFPSMPLFAYFTT', '3.64e+06'),
  ('CD71-binding FN3 domain of SEQ ID NO: 475 (designed binder) MLPAPKNLVVSRVTEDSARLSWTAPDAAFDSFFIGYLEPQPPGEAITLYVPGSERSYDLTGLKPGTEYNVTIQGVKGGFPSIPLSAEFTT', '3.21e+06'),
  ('CD71-binding FN3 domain of SEQ ID NO: 452 (designed binder) MLPAPKNLVVSRVTEDSARLSWTAPDAAFDSFFIGYLEPQPPGEAIHLQVPGSERSYDLTGLKPGTEYNVTIQGVKGGFPSIPLVAQFTT', '4.23e+06');

Numbers sourced from patent US20260151494A1.
